- Test system: ATP;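 further: ATP exposure 15 min at 22 °C before imaging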
- test-protocol: switch fluorescence ratio, 500 uM ATP over buffer (Cy3 cluster intensity, sum of 5 cycles each) (fold (ratio)); higher = stronger signal-on switching upon ATP binding; sequences stand for … in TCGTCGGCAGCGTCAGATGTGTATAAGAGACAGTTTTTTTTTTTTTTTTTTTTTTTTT…TC
- measurement-setup: aptamer strand: ATP DNA aptamer (quencher-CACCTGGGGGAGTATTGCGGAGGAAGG + anchor), 100 nM annealed; ATP concentration: 500 uM
observed-property: switch fluorescence ratio

entry-sequence: CGATGTTTAG
switch fluorescence ratio: 0.986

**Q:** For `ACTTTACTTA` , what is its reported switch fluorescence ratio?
**A:** 1.33

**Q:** For `GTGAGCTTGT` , what is its reported switch fluorescence ratio?
**A:** 1.02

**Q:** For `AAGGCTGATG` , what is its reported switch fluorescence ratio?
**A:** 0.983
